# System: 233499-124-R-J3-PDC complex spheroid viability;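 also: spheroids exposed to the drug combinations for seven days; percent viability relative to DMSO vehicle control wells taken as 100%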
# MEASUREMENT NOTES: Anticancer human tumor 233499-124-R-J3-PDC patient-derived colon adenocarcinoma cell line growth inhibition [CLK]
# PROTOCOL CONDITIONS: second compound 1 µM; first compound 0.0316 µM; hits give low values
MEASUREMENT KIND: viability, T/C

Worked set:
Which viability, T/C is listed for CC1COCCN1c1cc(C2(S(C)(=N)=O)CC2)nc(-c2ccnc3[nH]ccc23)n1 (stereo unspecified) + CN1CCN(c2cc(C(=O)Nc3cc4cc(-c5cnn(C)c5)ccc4cn3)ccn2)CC1 ?
3.94%

Which viability, T/C is listed for CC1(C)CCC(CN2CCN(c3ccc(C(=O)NS(=O)(=O)c4ccc(NCC5CCOCC5)c([N+](=O)[O-])c4)c(Oc4cnc5[nH]ccc5c4)c3)CC2)=C(c2ccc(Cl)cc2)C1 + CN1CCN(c2cc(C(=O)Nc3cc4cc(-c5cnn(C)c5)ccc4cn3)ccn2)CC1 ?
0.68%

Which viability, T/C is listed for COc1ccc([C@@H](O)c2cc(-c3ncnc4cc(N5CCOCC5)ccc34)c(F)cc2Cl)nn1 + CNC(=O)c1ccc(Nc2nc(OC3CCCC3)c3c(-c4ccc5nc(C)oc5c4)c[nH]c3n2)c(OC)c1 ?
84.6%

Which viability, T/C is listed for COc1cccc2c1C(=O)c1c(O)c3c(c(O)c1C2=O)CC(O)(C(=O)CO)CC3OC1CC(N)C(O)C(C)O1 (stereo unspecified) + CNC(=O)c1ccc(Nc2nc(OC3CCCC3)c3c(-c4ccc5nc(C)oc5c4)c[nH]c3n2)c(OC)c1 ?
51.1%

Which viability, T/C is listed for CC(=O)O[C@H]1C(=O)[C@@]2(C)[C@H]([C@H](OC(=O)c3ccccc3)[C@]3(O)C[C@H](OC(=O)[C@H](O)[C@@H](NC(=O)c4ccccc4)c4ccccc4)C(C)=C1C3(C)C)[C@]1(OC(C)=O)CO[C@@H]1C[C@@H]2O + CNC(=O)c1ccc(Nc2nc(OC3CCCC3)c3c(-c4ccc5nc(C)oc5c4)c[nH]c3n2)c(OC)c1 ?
91.2%

// next item, viability, T/C requested
Which viability, T/C is listed for COc1c(OCCCN2CCOCC2)ccc2c3n(c(=NC(=O)c4cnc(N)nc4)nc12)CCN3 + CNC(=O)c1ccc(Nc2nc(OC3CCCC3)c3c(-c4ccc5nc(C)oc5c4)c[nH]c3n2)c(OC)c1 ?
49%
